# Test method notes: self-splicing fitness, log relative to wild type (ln ratio); higher = more splicing; Tetrahymena group I intron in knt gene, E. coli kanamycin selection, DiMSum; sequences stand for … in CUCUCU…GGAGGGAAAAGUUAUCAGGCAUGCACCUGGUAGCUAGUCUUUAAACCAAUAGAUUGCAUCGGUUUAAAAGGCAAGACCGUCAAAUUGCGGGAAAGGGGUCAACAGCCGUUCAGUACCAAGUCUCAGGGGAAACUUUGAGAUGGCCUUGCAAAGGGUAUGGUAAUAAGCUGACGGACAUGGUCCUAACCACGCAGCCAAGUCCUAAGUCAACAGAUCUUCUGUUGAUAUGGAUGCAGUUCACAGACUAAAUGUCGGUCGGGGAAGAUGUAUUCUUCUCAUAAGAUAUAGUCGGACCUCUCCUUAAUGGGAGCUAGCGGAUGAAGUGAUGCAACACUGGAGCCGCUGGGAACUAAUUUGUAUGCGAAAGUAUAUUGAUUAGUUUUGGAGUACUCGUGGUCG;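 note: selection with 25 µg/mL kanamycin versus none on LB agar overnight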
# Condition details: 37 °C
Label rule, in plain words: self-splicing fitness (ln) of -1 and up is t, under -1 is f.

{"columns": ["Input sequence", "Cat"],
 "data": [
  ["GCGCAGCAAUAUUACGGUAG", "f"]
]}

Determine whether this sequence has self-splicing fitness (ln) no lower than -1: AAACAGCAAUAUUACGACUA
t

Is self-splicing fitness (ln) at least -1? Consider GGUAAGCAAUAUUACGAAUU
t

# bool: self-splicing fitness (ln) of UAGAAGCAAUAUUACGAUCA >= -1
t

Check this sequence for self-splicing fitness (ln) at or above -1: UAGGAGCAAUAUUACGUAGA
f

* * *

# Test method notes: self-splicing fitness, log relative to wild type (ln ratio); higher = more splicing; Tetrahymena group I intron in knt gene, E. coli kanamycin selection, DiMSum; sequences stand for … in CUCUCU…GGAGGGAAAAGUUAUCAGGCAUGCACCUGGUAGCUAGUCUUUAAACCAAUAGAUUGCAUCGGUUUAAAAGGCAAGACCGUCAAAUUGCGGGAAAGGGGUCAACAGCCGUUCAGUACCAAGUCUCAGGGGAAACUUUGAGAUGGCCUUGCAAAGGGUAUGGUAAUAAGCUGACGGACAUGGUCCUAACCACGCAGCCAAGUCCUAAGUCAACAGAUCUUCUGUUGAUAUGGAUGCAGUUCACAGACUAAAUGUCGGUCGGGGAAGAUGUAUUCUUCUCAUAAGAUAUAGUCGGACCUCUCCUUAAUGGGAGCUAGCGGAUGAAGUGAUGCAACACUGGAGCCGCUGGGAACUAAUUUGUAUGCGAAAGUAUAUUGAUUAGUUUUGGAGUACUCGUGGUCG
# Condition details: 37 °C
Values of self-splicing fitness (ln) greater than or equal to -2 map to criterion met; values below map to criterion not met.

{"columns": ["Input sequence", "Cat"],
 "data": [
  ["AUAGAGCAAUAUUACGUACC", "criterion met"]
]}

Could you tell me if the measured self-splicing fitness (ln) of AUCAAGCAAUAUUACGUUUC reaches -2 or more?
criterion met

Check this sequence for self-splicing fitness (ln) at or above -2: AAUGAGCAAUAUUACGUCGG
criterion not met

Confirm if self-splicing fitness (ln) reported for the sequence CGACAGCAAUAUUACGGACA is -2 or above.
criterion met

self-splicing fitness (ln) >= -2 for CGUGAGCAAUAUUACGCAAC ?
criterion not met

Is self-splicing fitness (ln) at least -2? Consider AAUGAGCAAUAUUACGCACC
criterion met

Form field: self-splicing fitness (ln) at least -2? Entry: UCAGAGCAAUAUUACGGAGG
criterion not met

Could you please find out whether GCGGAGCAAUAUUACGCCUU has self-splicing fitness (ln) that meets -2 or exceeds it?
criterion not met

Entry AGACAGCAAUAUUACGCCGU : is its self-splicing fitness (ln) no less than -2?
criterion not met

Say whether AUCCAGCAAUAUUACGGCCC shows self-splicing fitness (ln) of -2 or more.
criterion met

Has CAGGAGCAAUAUUACGCACU a recorded self-splicing fitness (ln) greater than or equal to -2?
criterion met

Hello, I need to know if UAUGAGCAAUAUUACGAGUU has measured self-splicing fitness (ln) not below -2. Thanks!
criterion not met

Decide: self-splicing fitness (ln) of GGUGAGCAAUAUUACGCACU >= -2?
criterion not met

State whether the measured self-splicing fitness (ln) reaches -2, counting equality as reaching it, for UAUUAGCAAUAUUACGGCUA
criterion met

* * *

# Test method notes: self-splicing fitness, log relative to wild type (ln ratio); higher = more splicing; Tetrahymena group I intron in knt gene, E. coli kanamycin selection, DiMSum; sequences stand for … in CUCUCU…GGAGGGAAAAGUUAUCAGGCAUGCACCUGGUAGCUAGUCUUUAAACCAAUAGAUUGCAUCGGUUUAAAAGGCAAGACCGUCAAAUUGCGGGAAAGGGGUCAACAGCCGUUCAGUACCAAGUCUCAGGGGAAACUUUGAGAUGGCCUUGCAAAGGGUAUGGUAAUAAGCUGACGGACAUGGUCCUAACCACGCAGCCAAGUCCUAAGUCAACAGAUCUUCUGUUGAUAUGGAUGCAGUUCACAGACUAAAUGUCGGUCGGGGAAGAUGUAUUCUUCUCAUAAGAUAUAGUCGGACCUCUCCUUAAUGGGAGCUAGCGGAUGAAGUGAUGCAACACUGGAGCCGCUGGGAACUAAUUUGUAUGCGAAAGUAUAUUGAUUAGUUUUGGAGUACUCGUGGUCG
# Condition details: 37 °C
Quantity measured: self-splicing fitness (ln)

Some sequences with recorded self-splicing fitness (ln):
{"columns": ["Input sequence", "self-splicing fitness (ln)"],
 "data": [
  ["CCACAGCAAUAUUACGGCGG", -1.08],
  ["AUUAAGCAAUAUUACGGGUC", -3.49]
]}

Dear colleague, I am looking for the recorded self-splicing fitness (ln) of the following sequence: ACGGAGCAAUAUUACGGUCA
-1.35

Value lookup for self-splicing fitness (ln); key = AACAAGCAAUAUUACGAGUU
-1.5

Fill blank: measured self-splicing fitness (ln) of the sequence ACAUAGCAAUAUUACGUCGG is ____.
-1.16

# self-splicing fitness (ln) lookup, item CUCAAGCAAUAUUACGUCUU
-2.06

Look up self-splicing fitness (ln) for this sequence: AUUCAGCAAUAUUACGAAGU
-0.236

Look up self-splicing fitness (ln) for this sequence: CAGUAGCAAUAUUACGUCGG
-0.0434

* * *

Recorded self-splicing fitness (ln), one value per entry.
# Test method notes: self-splicing fitness, log relative to wild type (ln ratio); higher = more splicing; Tetrahymena group I intron in knt gene, E. coli kanamycin selection, DiMSum; sequences stand for … in CUCUCU…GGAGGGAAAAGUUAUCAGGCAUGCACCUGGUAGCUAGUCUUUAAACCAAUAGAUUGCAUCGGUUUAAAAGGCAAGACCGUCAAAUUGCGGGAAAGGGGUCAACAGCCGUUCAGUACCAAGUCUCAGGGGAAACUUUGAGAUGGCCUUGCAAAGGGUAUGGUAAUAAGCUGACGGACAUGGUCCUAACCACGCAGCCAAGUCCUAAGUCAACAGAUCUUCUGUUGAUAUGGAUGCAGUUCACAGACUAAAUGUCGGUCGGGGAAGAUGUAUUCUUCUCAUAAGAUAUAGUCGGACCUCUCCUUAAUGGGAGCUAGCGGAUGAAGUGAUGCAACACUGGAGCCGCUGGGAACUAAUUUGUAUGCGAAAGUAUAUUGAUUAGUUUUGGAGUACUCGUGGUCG
# Condition details: 30 °C
Please give the numeric answer without any surrounding text.

{"columns": ["Input sequence", "self-splicing fitness (ln)"],
 "data": [
  ["CCUUAGCAAUAUUACGCUAU", -3.14],
  ["CGUCAGCAAUAUUACGACCA", -0.734],
  ["GGUUAGCAAUAUUACGAGGG", -3.05],
  ["CAAAAGCAAUAUUACGAGAA", -1.51],
  ["GGCUAGCAAUAUUACGAAAA", -1.06]
]}

Can you share its self-splicing fitness (ln)? I mean this sequence: GCGCAGCAAUAUUACGCGUC
-3.41

What value of self-splicing fitness (ln) has been recorded for this entry: AUCAAGCAAUAUUACGUGAU
-3.81

Report self-splicing fitness (ln) for CCUGAGCAAUAUUACGACUC please.
-1.44

Which self-splicing fitness (ln) reading was recorded for the sequence UGCAAGCAAUAUUACGUGGC ?
-2.62

Tell me the measured self-splicing fitness (ln) of UCCAAGCAAUAUUACGGUGU , please.
-0.788

Any idea what its self-splicing fitness (ln) is? The sequence is AUUCAGCAAUAUUACGGUGG
-3.09

Recorded self-splicing fitness (ln) for GGAAAGCAAUAUUACGCGUA , please?
-1.45

Recorded self-splicing fitness (ln) of GACAAGCAAUAUUACGUCGG , please.
-2.91
